Organism: Rattus norvegicus
Protocol: Open TG-GATES - Regimen: Daily Repeat
Type: toxicity, organism-based, Sprague-Dawley
Design: regimen Daily Repeat, gender Male, age 6 weeks
Condition description: in vivo, po, 1000 mg/kg, […], tissue Plasma, route gavage, dose level High, time 28 day
Measured parameter: BUN
Remember to follow the number with its unit.

Which measured BUN value corresponds to CC(S)C(=O)NCC(=O)O (centres undefined) ?
17 mg/dL

Look up BUN: CCCCNC(=O)NS(=O)(=O)c1ccc(C)cc1 [TOLBUTAMIDE]
17.2 mg/dL

Item under review: CC(=O)[C@@]1(O)CC[C@H]2[C@@H]3C=C(Cl)C4=CC(=O)CC[C@]4(C)[C@H]3CC[C@@]21C . Reported BUN?
17.4 mg/dL

Which BUN value is on record for O=C(O)c1ccccc1Nc1ccccc1 ?
20 mg/dL
